- studyTarget: Transcription intermediary factor 1-alpha (Homo sapiens, UniProt O15164)
- Sequence (O15164 whole entry): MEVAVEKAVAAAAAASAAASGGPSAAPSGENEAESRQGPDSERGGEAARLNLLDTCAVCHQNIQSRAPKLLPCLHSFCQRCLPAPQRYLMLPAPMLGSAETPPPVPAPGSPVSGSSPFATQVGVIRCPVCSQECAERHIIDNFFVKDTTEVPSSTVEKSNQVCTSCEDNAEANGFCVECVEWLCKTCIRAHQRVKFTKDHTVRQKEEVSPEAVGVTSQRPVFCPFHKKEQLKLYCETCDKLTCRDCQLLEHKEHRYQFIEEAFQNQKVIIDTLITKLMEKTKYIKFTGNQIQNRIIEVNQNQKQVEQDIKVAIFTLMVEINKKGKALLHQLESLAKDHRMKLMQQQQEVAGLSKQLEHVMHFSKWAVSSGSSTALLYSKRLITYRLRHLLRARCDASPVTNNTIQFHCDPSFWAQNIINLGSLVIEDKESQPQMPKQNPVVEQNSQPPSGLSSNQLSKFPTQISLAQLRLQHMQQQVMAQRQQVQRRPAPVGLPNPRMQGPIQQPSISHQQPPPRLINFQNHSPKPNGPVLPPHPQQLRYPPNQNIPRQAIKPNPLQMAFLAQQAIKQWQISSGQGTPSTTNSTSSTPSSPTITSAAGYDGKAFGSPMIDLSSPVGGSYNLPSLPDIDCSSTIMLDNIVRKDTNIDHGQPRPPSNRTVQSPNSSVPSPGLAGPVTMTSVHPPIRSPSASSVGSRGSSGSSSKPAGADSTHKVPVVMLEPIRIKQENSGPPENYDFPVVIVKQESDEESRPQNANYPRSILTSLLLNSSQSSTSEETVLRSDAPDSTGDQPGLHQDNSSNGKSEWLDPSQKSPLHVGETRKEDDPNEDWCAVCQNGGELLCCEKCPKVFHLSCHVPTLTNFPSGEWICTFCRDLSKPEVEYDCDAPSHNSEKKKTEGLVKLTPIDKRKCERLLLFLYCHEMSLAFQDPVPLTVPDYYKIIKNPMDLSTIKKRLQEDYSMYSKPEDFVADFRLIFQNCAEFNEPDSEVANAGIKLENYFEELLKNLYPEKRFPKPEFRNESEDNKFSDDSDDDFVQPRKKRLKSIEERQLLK
- assayProcedure: Inhibition of recombinant TRIM24 (unknown origin) using biotinylated H3 peptide (H3K9me3K18ac) by AlphaScreen assay
The following compounds are shown together with reported IC50 values.
Lab book: enter the figure in µM, no units written.

Answered examples (8):
N#Cc1ccc(CNc2c(-c3ccc4nccn4c3)nc3cnccn23)cc1 = 818
COCCNc1c(-c2c[nH]c(C)n2)nc2ccccn12 = 141
COc1ccc(CCNc2c(-c3c[nH]c(C)n3)nc3ccccn23)cc1OC = 44.4
Cc1[nH]cnc1-c1nc2ccc(Br)cn2c1NC1CCCCC1 = 8.48
COC(=O)c1ccc2nc(-c3ccc4nccn4c3)c(Nc3ccc(OC)cc3)n2c1 = 375
Cc1nc(-c2nc3cnccn3c2NCc2ccc(C#N)cc2)c[nH]1 = 54.8
COc1ccc(Nc2c(-c3c[nH]c(C)n3)nc3ccccn23)cc1 = 1.71
Brc1ccc2nc(-c3ccc4nccn4c3)c(NC3CCCCC3)n2c1 = 100

# return recorded IC50 for entry Cc1[nH]cnc1-c1nc2ccc(Br)cn2c1NCc1ccc(C#N)cc1
29.3

Specify reported IC50 for the compound shown: COc1ccc(C=O)c(O)c1
0.22

Look up IC50 of O=C1CCCC1 and report it.
0.136
